Every entry's value here was drawn from patent US10696615B2.

# Test system: OVCAR-3
# assay-protocol: NCI in vitro cancer screen, Ovarian Cancer
# Type: cell-based, human
# assay-context: OVCAR-3
Label YES for high-side TGI (at or above 4 µM) and NO for low-side TGI (below it).

>  <smiles-code>
CC(C)=CCc1c(O)cc(/C=C/c2ccc(O)c(O)c2)c(CC=C(C)C)c1O

>  <label-value>
NO

$$$$
>  <smiles-code>
COc1cc(/C=C/c2cc(O)c(CC=C(C)C)c(O)c2)ccc1O

>  <label-value>
YES

$$$$
>  <smiles-code>
CC(C)=CCc1c(O)cc(/C=C/c2ccc(O)cc2)c(CC=C(C)C)c1O

>  <label-value>
YES

$$$$
>  <smiles-code>
COc1cc(O)cc(/C=C/c2ccc(O)c(O)c2)c1CC=C(C)C

>  <label-value>
NO

$$$$
>  <smiles-code>
CC(C)=CCOc1cc(O)cc(/C=C/c2ccc(O)c(O)c2)c1

>  <label-value>
YES

$$$$

# evaluate next
Task item: Entry `COc1cc(/C=C/c2cc(O)cc(OCC=C(C)C)c2)ccc1O` : is its TGI no less than 4 µM?
Reply: YES

---

# TGI annotations
# Test system: SF-539
# assay-protocol: NCI in vitro cancer screen, CNS Cancer
# Format: cell-based
# assay-context: SF-539
Please respond with the number in µM and leave the unit unwritten.

Worked examples follow.
>  <compound>
CC(C)=CCc1c(O)cc(/C=C/c2ccc(O)cc2)c(CC=C(C)C)c1O [USYDS6]

>  <unit-info>
µM

>  <TGI>
17.6

$$$$
>  <compound>
COc1cc(O)cc(/C=C/c2ccc(O)c(O)c2)c1CC=C(C)C [USYDS9]

>  <unit-info>
µM

>  <TGI>
1.02

$$$$
>  <compound>
COc1cc(/C=C/c2cc(O)cc(OC)c2CC=C(C)C)ccc1O [USYDS1]

>  <unit-info>
µM

>  <TGI>
14.4

$$$$

Task item: TGI of CC(C)=CCc1c(O)cc(/C=C/c2ccc(O)c(O)c2)c(CC=C(C)C)c1O [USYDS7] on SF-539?
Reply: 6.14

Task item: Form field: TGI recorded for CC(C)=CCOc1cc(O)cc(/C=C/c2ccc(O)c(O)c2)c1 [USYDS4] with SF-539 (enter value)
Reply: 22.3

Task item: Lookup: TGI / SF-539 / COc1cc(/C=C/c2cc(O)c(CC=C(C)C)c(O)c2)ccc1O [USYDS13]
Reply: 29.9

Task item: Lab note: need TGI with SF-539 for entry COc1cc(/C=C/c2cc(O)cc(OCC=C(C)C)c2)ccc1O [USYDS2] , please look it up.
Reply: 13.8

---

# System: OVCAR-8
# assay-protocol: NCI in vitro cancer screen, Ovarian Cancer
# Format: cell-based, human
# assay-context: OVCAR-8
measured-quantity: TGI (µM)
Numeric answer only, unit µM assumed.

Task item: Report TGI for COc1cc(/C=C/c2cc(O)c(CC=C(C)C)c(O)c2)ccc1O [USYDS13] please.
Reply: 59.8

Task item: Recorded TGI of CC(C)=CCc1c(O)cc(/C=C/c2ccc(O)c(O)c2)c(CC=C(C)C)c1O [USYDS7] , please.
Reply: 3.65

Task item: Request the reported TGI associated with CC(C)=CCOc1cc(O)cc(/C=C/c2ccc(O)c(O)c2)c1 [USYDS4]
Reply: 31.1

Task item: # lookup: TGI of CC(C)=CCc1c(O)cc(/C=C/c2ccc(O)cc2)c(CC=C(C)C)c1O [USYDS6]
Reply: 9.51

Task item: Which value of TGI has been reported for COc1cc(O)cc(/C=C/c2ccc(O)c(O)c2)c1CC=C(C)C [USYDS9] in the records?
Reply: 38.3

Task item: Query (compound): COc1cc(/C=C/c2cc(O)cc(OCC=C(C)C)c2)ccc1O [USYDS2] ; field requested: TGI
Reply: 14.8

Task item: Reported TGI, compound COc1cc(/C=C/c2cc(O)cc(OC)c2CC=C(C)C)ccc1O [USYDS1] : ____
Reply: 11.7

---

# Tested on: SF-539
# assay-protocol: NCI in vitro cancer screen, CNS Cancer
# Type: cell-based
# assay-context: Homo sapiens, SF-539; read-out: LC50 (the source's name)
measured-quantity: CC50 (µM)
Kindly provide the numeric value in µM only, without the unit symbol.

Consider the following illustrative entries.
>  <compound>
CC(C)=CCOc1cc(O)cc(/C=C/c2ccc(O)c(O)c2)c1 [USYDS4]

>  <CC50 / µM>
97.5

$$$$
>  <compound>
COc1cc(/C=C/c2cc(O)cc(OC)c2CC=C(C)C)ccc1O [USYDS1]

>  <CC50 / µM>
48.6

$$$$
>  <compound>
CC(C)=CCc1c(O)cc(/C=C/c2ccc(O)c(O)c2)c(CC=C(C)C)c1O [USYDS7]

>  <CC50 / µM>
35.2

$$$$
>  <compound>
COc1cc(/C=C/c2cc(O)cc(OCC=C(C)C)c2)ccc1O [USYDS2]

>  <CC50 / µM>
50.2

$$$$

Now take the following compound into account.
Task item: Form field: CC50 recorded for CC(C)=CCc1c(O)cc(/C=C/c2ccc(O)cc2)c(CC=C(C)C)c1O [USYDS6] with SF-539 (enter value)
Reply: 57.1

---

# Tested on: OVCAR-4
# assay-protocol: NCI in vitro cancer screen, Ovarian Cancer
# Format: cell-based, human
# assay-context: OVCAR-4
Returns one of True or False; True when TGI is >= 30 µM.

>  <smiles-code>
CC(C)=CCOc1cc(O)cc(/C=C/c2ccc(O)c(O)c2)c1

>  <label-value>
True

$$$$
>  <smiles-code>
CC(C)=CCc1c(O)cc(/C=C/c2ccc(O)c(O)c2)c(CC=C(C)C)c1O

>  <label-value>
False

$$$$
>  <smiles-code>
CC(C)=CCc1c(O)cc(/C=C/c2ccc(O)cc2)c(CC=C(C)C)c1O

>  <label-value>
False

$$$$
>  <smiles-code>
COc1cc(/C=C/c2cc(O)c(CC=C(C)C)c(O)c2)ccc1O

>  <label-value>
True

$$$$
>  <smiles-code>
COc1cc(/C=C/c2cc(O)cc(OC)c2CC=C(C)C)ccc1O

>  <label-value>
False

$$$$
>  <smiles-code>
COc1cc(O)cc(/C=C/c2ccc(O)c(O)c2)c1CC=C(C)C

>  <label-value>
True

$$$$

Task item: Does the reported TGI for `COc1cc(/C=C/c2cc(O)cc(OCC=C(C)C)c2)ccc1O` fall at or above the 30 µM mark?
Reply: False

---

The entries below are paired with their reported CC50.
# Tested on: KM12
# assay-protocol: NCI in vitro cancer screen, Colon Cancer
# Format: cell-based, human
# assay-context: Homo sapiens, KM12; read-out: LC50 (the source's name)
Give the value in µM but do not write µM after it.

Solved cases below.
>  <molecule>
COc1cc(/C=C/c2cc(O)c(CC=C(C)C)c(O)c2)ccc1O [USYDS13]

>  <tested-system>
KM12

>  <unit-info>
µM

>  <CC50>
49

$$$$
>  <molecule>
CC(C)=CCc1c(O)cc(/C=C/c2ccc(O)cc2)c(CC=C(C)C)c1O [USYDS6]

>  <tested-system>
KM12

>  <unit-info>
µM

>  <CC50>
8.64

$$$$
>  <molecule>
CC(C)=CCc1c(O)cc(/C=C/c2ccc(O)c(O)c2)c(CC=C(C)C)c1O [USYDS7]

>  <tested-system>
KM12

>  <unit-info>
µM

>  <CC50>
7.79

$$$$
>  <molecule>
COc1cc(O)cc(/C=C/c2ccc(O)c(O)c2)c1CC=C(C)C [USYDS9]

>  <tested-system>
KM12

>  <unit-info>
µM

>  <CC50>
63.9

$$$$
>  <molecule>
COc1cc(/C=C/c2cc(O)cc(OCC=C(C)C)c2)ccc1O [USYDS2]

>  <tested-system>
KM12

>  <unit-info>
µM

>  <CC50>
45

$$$$

Task item: Quick one: CC50 of CC(C)=CCOc1cc(O)cc(/C=C/c2ccc(O)c(O)c2)c1 [USYDS4] ?
Reply: 46.5

Task item: Which CC50 reading was recorded for the molecule COc1cc(/C=C/c2cc(O)cc(OC)c2CC=C(C)C)ccc1O [USYDS1] ?
Reply: 46.7

---

# Test system: SF-295
# assay-protocol: NCI in vitro cancer screen, CNS Cancer
# Assay type: cell-based, human
# assay-context: SF-295
Measured TGI, listed per entry for reference.
State the answer as a number, implicitly in µM.

>  <smiles-code>
COc1cc(/C=C/c2cc(O)cc(OC)c2CC=C(C)C)ccc1O

>  <numeric-readout>
16.2

$$$$
>  <smiles-code>
CC(C)=CCc1c(O)cc(/C=C/c2ccc(O)cc2)c(CC=C(C)C)c1O

>  <numeric-readout>
20.8

$$$$
>  <smiles-code>
COc1cc(O)cc(/C=C/c2ccc(O)c(O)c2)c1CC=C(C)C

>  <numeric-readout>
20.5

$$$$
>  <smiles-code>
COc1cc(/C=C/c2cc(O)cc(OCC=C(C)C)c2)ccc1O

>  <numeric-readout>
14.7

$$$$
>  <smiles-code>
CC(C)=CCOc1cc(O)cc(/C=C/c2ccc(O)c(O)c2)c1

>  <numeric-readout>
24.3

$$$$
>  <smiles-code>
CC(C)=CCc1c(O)cc(/C=C/c2ccc(O)c(O)c2)c(CC=C(C)C)c1O

>  <numeric-readout>
11.4

$$$$

Query compound follows.
Task item: Would you kindly share the measured TGI for `COc1cc(/C=C/c2cc(O)c(CC=C(C)C)c(O)c2)ccc1O` ?
Reply: 23.5
